// data source = PubChem BioAssay AID1159580

# test_summary: chemical genetic growth profiling, strain panel (AID 1159580);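 note: tested at 20 µM; growth read once vehicle control cultures reached saturation at 30 °C; 1 = growth at the plate median or of vehicle wells; lower values mean less growth of the strain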
# condition_description: S. cerevisiae deletion strains, growth OD, locus YOR061W, strain CKA2, stronger effect = lower value
Screen size: about 5,500 compounds; about 2,000 (36%) were called active. Roughly 18% stayed inconclusive and do not appear here. The list shows a part of the results.
reported_metric: normalized growth
// keep it numeric: no unit symbol after the value

Task: Requested field: normalized growth. Item: CC(C)=CCC1=C(O)c2ccccc2C(=O)C1=O
Output: 0.953

Task: Again, but for CC(C)(O)CC[C@@H](O)[C@](C)(O)C1CC[C@@]2(O)C3=CC(=O)C4C[C@@H](O)[C@@H](O)C[C@]4(C)C3CC[C@]12C (stereo partly specified)
Output: 1.01

Task: Again, but for CN1CCN(C(c2ccccc2)c2ccccc2)CC1
Output: 1

Task: Again, but for C=C(C)c1cc2cc(C(C)=O)c(O)cc2o1
Output: 0.933

Task: Again, but for CNC(=O)CSP(=S)(OC)OC
Output: 1.01

Task: Again, but for Cn1nnnc1SCC1=C(C(=O)O)N2C(=O)C(NC(=O)C(OC=O)c3ccccc3)C2SC1 (stereo unspecified)
Output: 1.01

Task: Again, but for Fc1ccc(C(c2ccc(F)cc2)N2CCN(C/C=C/c3ccccc3)CC2)cc1
Output: 0.982

Task: Again, but for O=[N+]([O-])/N=C1/NCCN1Cc1ccc(Cl)cc1
Output: 0.992

Task: Again, but for COP(=S)(OC)SCn1nnc2ccccc2c1=O
Output: 0.955

Task: Again, but for O=C1OC(=O)C2C3CCC(O3)C12 (stereo unspecified)
Output: 1.01

Task: Again, but for Cc1ncc([N+](=O)[O-])n1CCO
Output: 0.967

---

# test_summary: chemical genetic growth profiling, strain panel (AID 1159580);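 note: tested at 20 µM; growth read once vehicle control cultures reached saturation at 30 °C; 1 = growth at the plate median or of vehicle wells; lower values mean less growth of the strain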
# condition_description: S. cerevisiae deletion strains, growth OD, locus YCL016C, strain dcc1
The whole screen tested about 5,500 compounds, of which about 2,000 (36%) were called active. About 18% were inconclusive and are not listed. Rule as the data show it: active = normalized growth mostly below about 0.91 (no sharp cut-off); inconclusive = no clear call, values can overlap the other calls; inactive = mostly above about 0.92. The list shows a part of the results.
Outcomes you can answer with include only these: active, inactive

Task: What did the test return for O=c1ccc2cc(O[C@@H]3O[C@H](CO)[C@@H](O)[C@H](O)[C@H]3O)c(O)cc2o1 ?
Output: inactive

Task: Again, but for COc1cc2ccc(=O)oc2c(OC)c1OC
Output: inactive

Task: Again, but for COc1ccc2ccc(=O)oc2c1CC=C(C)C
Output: active

Task: Again, but for COc1cc2c(cc1-c1coc3c4c(c(OC)cc3c1=O)OC(C)(C)C=C4)OCO2
Output: inactive

Task: Again, but for CC1(C)C=Cc2c(cc3occ(-c4ccc5c(c4)OCO5)c(=O)c3c2O)O1
Output: inactive

Task: Again, but for CN1Cc2c(N)cccc2C(c2ccccc2)C1 (centres undefined)
Output: inactive

Task: Again, but for CC(C)=CCC/C(C)=C/COc1ccc2ccc(=O)oc2c1
Output: inactive

Task: Again, but for COc1c2c(cc3occ(-c4ccc5c(c4)OCO5)c(=O)c13)OC(C)(C)C=C2
Output: inactive

Task: Again, but for CC(C)=CCC1=C(O)c2ccccc2C(=O)C1=O
Output: active

Task: Again, but for c1coc(CNc2ncnc3nc[nH]c23)c1
Output: inactive

Task: Again, but for CN(C)c1nc(N(C)C)nc(N(C)C)n1
Output: inactive

Task: Again, but for CC(C)=CCOc1cc2oc(=O)ccc2cc1O
Output: inactive

Task: Again, but for Cc1c(N(C)CS(=O)(=O)O)c(=O)n(-c2ccccc2)n1C
Output: inactive

Task: Again, but for COC(=O)C[C@H]1C(C)(C)[C@@H](OC(C)=O)[C@@H]2CC3C4CC(=O)O[C@@H](c5ccoc5)[C@]4(C)CCC3[C@@]1(C)C2=O (some centres undefined)
Output: inactive

Task: Again, but for Nc1ncnc2nc[nH]c12
Output: inactive

Task: Again, but for FC(F)(F)COCC(F)(F)F
Output: inactive

Task: Again, but for Cc1cc(C)nc(NS(=O)(=O)c2ccc(N)cc2)n1
Output: inactive

Task: Again, but for COc1cc(OC)c2c(=O)c(-c3ccc4c(c3)OCO4)coc2c1
Output: inactive

Task: Again, but for CC(C)=CCc1c(O)cc2occ(-c3ccc4c(c3)OCO4)c(=O)c2c1O
Output: active
